# Tested on: HDAC (Mouse Liver Extract)
# Construct: Mouse liver enzyme (10 mg/ml) was diluted 1:6 with HDAC buffer
# test: HDAC inhibition assay using Boc-Lys(Ac)-AMC substrate, mouse liver enzyme
# Assay type: biochemical
# run.parameters: 10 μM
readout.label: HDAC Inhibition % (10 μM) (%)

Recorded results for 2 molecules are shown here.
[[record]]
molecule = "O=C(/C=C/c1ccc(/C=C(/C(=O)Nc2ccccc2)c2cccc(OC3CCCC3)c2)cc1)NO [Example 44]"
readout_label = "HDAC Inhibition % (10 μM)"
value_unit = "%"
data_value = 95.9

[[record]]
molecule = "O=C(/C=C/c1ccc(/C=C(/C(=O)NCc2ccc(F)cc2)c2ccc(F)cc2)cc1)NO [Example 34]"
readout_label = "HDAC Inhibition % (10 μM)"
value_unit = "%"
data_value = 94.3


P: O=C(/C=C/c1ccc(C=C(C(=O)NC2CC2)c2cccs2)cc1)NCCCCCC(=O)NO (stereo in doubt) [Example 83]
Q: Nc1ccccc1NC(=O)/C=C/c1ccc(/C=C(/C(=O)NC2CC2)c2ccccc2Cl)cc1 [Example 63]
query: Between P and Q , which one shows the smaller HDAC Inhibition % (10 μM) number? Which one? Tell me its label.
result: Q
(Q: 49.2%, P: 99.6%)

----------
# Tested on: HDAC (Mouse Liver Extract)
# Construct: Mouse liver enzyme (10 mg/ml) was diluted 1:6 with HDAC buffer
# test: HDAC inhibition assay using Boc-Lys(Ac)-AMC substrate, mouse liver enzyme
# Format: biochemical
# run.parameters: 1 μM
readout.label: HDAC Inhibition % (1 μM) (%)

// solved cases for HDAC Inhibition % (1 μM) follow
[[record]]
molecule = "O=C(/C=C/c1cccc(/C(=C\\c2ccc(F)cc2)C(=O)NC2CC2)c1)NO [Example 40]"
readout_label = "HDAC Inhibition % (1 μM)"
data_value = 85.3

[[record]]
molecule = "O=C(/C=C/c1ccc(/C=C(/C(=O)N2CCCC2)c2ccc(F)cc2)cc1)NO [Example 30]"
readout_label = "HDAC Inhibition % (1 μM)"
data_value = 72.4

[[record]]
molecule = "O=C(CCCCCNC(=O)c1ccc(/C=C(/C(=O)NC2CC2)c2ccccc2F)cc1)NO [Example 163]"
readout_label = "HDAC Inhibition % (1 μM)"
data_value = 81.7

[[record]]
molecule = "O=C(/C=C/c1ccc(/C=C(/C(=O)Nc2ccccc2)c2cccc(OC3CCCC3)c2)cc1)NO [Example 44]"
readout_label = "HDAC Inhibition % (1 μM)"
data_value = 77.4

[[record]]
molecule = "COc1cccc(/C(=C\\c2ccc(/C=C/C(=O)NCc3ccc(C(=O)NO)cc3)cc2)C(=O)NC2CC2)c1 [Example 97]"
readout_label = "HDAC Inhibition % (1 μM)"
data_value = 100.0

[[record]]
molecule = "CC(C)NC(=O)/C(=C/c1ccc(/C=C/C(=O)NO)cc1)c1cccc(F)c1 [Example 22]"
readout_label = "HDAC Inhibition % (1 μM)"
data_value = 85.5

[[record]]
molecule = "O=C(NC1CC1)/C(=C/c1ccc(C(=O)NCc2ccc(C(=O)NO)cc2)cc1)c1cccc(Cl)c1 [Example 153]"
readout_label = "HDAC Inhibition % (1 μM)"
data_value = 87.5


A: O=C(/C=C/c1ccc(/C=C(/C(=O)NC2CC2)c2ccccc2)cc1)NCc1ccc(C(=O)NO)cc1 [Example 93]
B: CN(C)C(=O)/C(=C/c1ccc(/C=C/C(=O)Nc2ccccc2N)cc1)c1ccc(F)cc1 [Example 60]
query: Decide: A or B , by lowest recorded HDAC Inhibition % (1 μM). Give the label of your selection.
result: B

----------
# system.tested: HDAC (Mouse Liver Extract)
# Construct: Mouse liver enzyme (10 mg/ml) was diluted 1:6 with HDAC buffer
# test: HDAC inhibition assay using Boc-Lys(Ac)-AMC substrate, mouse liver enzyme;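 as to IC50: IC50 for inhibition of HDAC activity in mouse liver extract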
readout.label: IC50 (µM)

[[record]]
molecule = "Cc1ccc(/C(=C\\c2ccc(/C=C/C(=O)NCc3ccc(C(=O)NO)cc3)cc2)C(=O)NC2CC2)cc1 [Example 92]"
readout_label = "IC50"
data_value = 0.0017


A: O=C(/C=C/c1ccc(/C=C(/C(=O)Nc2ccccc2)c2ccc(OCC3CC3)cc2)cc1)NO [Example 46]
B: O=C(/C=C/c1ccc(/C=C(/C(=O)Nc2ccccc2)c2cccc(OCC3CC3)c2)cc1)NO [Example 42]
query: Field: lower recorded IC50 (choose A or B ) Write down the label attached to your selection.
result: A
(A: 0.019 µM, B: 0.28 µM)

----------
# Tested on: HDAC (Mouse Liver Extract)
# Construct: Mouse liver enzyme (10 mg/ml) was diluted 1:6 with HDAC buffer
# test: HDAC inhibition assay using Boc-Lys(Ac)-AMC substrate, mouse liver enzyme
# Format: biochemical
# run.parameters: 10 μM
# Source text: Histone Deacetylase (HDAC) Inhibition Assay using Boc-Lys (Ac)-AMC Substrate: Inhibition of HDAC has been implicated to modulate transcription and to induce apoptosis or differentiation in cancer cells. The fluorometric assay provides a fast and fluorescence based method that eliminates radioactivity, extractions or chromatography, as used in traditional assays. The assay is based on two steps. […]
readout.label: HDAC Inhibition % (10 μM) (%)

P: COc1ccc(/C=C(/C(=O)NC2CC2)c2cccc(/C=C/C(=O)NO)c2)cc1OC [Example 47]
Q: Nc1ccccc1NC(=O)c1ccc(C=C(C(=O)NC2CC2)c2ccccc2)cc1 [Example 107]
query: Hi, I'm comparing two records. Which one has the lower HDAC Inhibition % (10 μM), P or Q ? Response format: the label of the selected entry.
result: Q
(Q: 58.4%, P: 97.1%)

----------
# Test system: HDAC (Mouse Liver Extract)
# Construct: Mouse liver enzyme (10 mg/ml) was diluted 1:6 with HDAC buffer
# test: HDAC inhibition assay using Boc-Lys(Ac)-AMC substrate, mouse liver enzyme
# Format: biochemical
# run.parameters: 10 μM
# From the text: Histone Deacetylase (HDAC) Inhibition Assay using Boc-Lys (Ac)-AMC Substrate: Inhibition of HDAC has been implicated to modulate transcription and to induce apoptosis or differentiation in cancer cells. The fluorometric assay provides a fast and fluorescence based method that eliminates radioactivity, extractions or chromatography, as used in traditional assays. The assay is based on two steps. […]
readout.label: HDAC Inhibition % (10 μM) (%)

[[record]]
test_smiles = "O=C(/C=C/c1ccc(/C=C(/C(=O)NC2CC2)c2ccccc2Cl)cc1)NCCCCCC(=O)NO"
value_unit = "%"
data_value = 100.0

[[record]]
test_smiles = "Nc1ccccc1NC(=O)c1ccc(/C=C(/C(=O)NC2CC2)c2ccc(F)cc2)cc1"
value_unit = "%"
data_value = 71.3

[[record]]
test_smiles = "O=C(/C=C/c1ccc(/C=C(/C(=O)NC2CC2)c2cccnc2)cc1)NO"
value_unit = "%"
data_value = 100.0

[[record]]
test_smiles = "O=C(/C=C/c1ccc(/C=C(/C(=O)N2CCSCC2)c2ccc(F)cc2)cc1)NO"
value_unit = "%"
data_value = 96.0


----------
Parameter 'readout' = GI50; parameter 'system' = HCT 116 (colon) cells.
readout.label: GI50 (µM)

[[record]]
test_smiles = "O=C(/C=C/c1ccc(/C=C(/C(=O)NC2CC2)c2ccccc2Cl)cc1)NCc1ccc(C(=O)NO)cc1"
readout_label = "GI50"
value_unit = "µM"
data_value = 3.5


P: O=C(/C=C/c1ccc(/C=C(/C(=O)N2CCCC2)c2ccc(F)cc2)cc1)NO
Q: O=C(/C=C/c1ccc(/C=C(/C(=O)Nc2ccccc2)c2ccc(OCC3CC3)cc2)cc1)NO
query: Would you mind telling me which has the lower recorded GI50 between P and Q ? Select an item and report its label.
result: Q
(Q: 1.6 µM, P: 5.5 µM)

----------
# System: HDAC (Mouse Liver Extract)
# Construct: Mouse liver enzyme (10 mg/ml) was diluted 1:6 with HDAC buffer
# test: HDAC inhibition assay using Boc-Lys(Ac)-AMC substrate, mouse liver enzyme
# Assay type: biochemical
# run.parameters: 1 μM
# Description: Histone Deacetylase (HDAC) Inhibition Assay using Boc-Lys (Ac)-AMC Substrate: Inhibition of HDAC has been implicated to modulate transcription and to induce apoptosis or differentiation in cancer cells. The fluorometric assay provides a fast and fluorescence based method that eliminates radioactivity, extractions or chromatography, as used in traditional assays. The assay is based on two steps. […]
readout.label: HDAC Inhibition % (1 μM) (%)

[[record]]
compound = "Nc1ccccc1NC(=O)/C=C/c1ccc(/C=C(/C(=O)NC2CC2)c2ccccc2Cl)cc1"
readout_label = "HDAC Inhibition % (1 μM)"
value_unit = "%"
data_value = 27.5

[[record]]
compound = "Nc1ccccc1NC(=O)c1ccc(/C=C(/C(=O)NC2CC2)c2cccnc2)cc1"
readout_label = "HDAC Inhibition % (1 μM)"
value_unit = "%"
data_value = 36.9

[[record]]
compound = "O=C(/C=C/c1ccc(/C=C(/C(=O)NC2CC2)c2cccc(Cl)c2)cc1)NCc1ccc(C(=O)NO)cc1"
readout_label = "HDAC Inhibition % (1 μM)"
value_unit = "%"
data_value = 99.8


1: COc1ccc(/C(=C\c2ccc(C(=O)Nc3ccccc3N)cc2)C(=O)NC2CC2)cc1OC
2: O=C(NC1CC1)/C(=C/c1ccc(C(=O)NCc2ccc(C(=O)NO)cc2)cc1)c1ccc(F)cc1
query: Kindly identify the item with the lower HDAC Inhibition % (1 μM) figure among these two: 1 and 2 Identify your selection by its label.
result: 1
